# test name: soluble on expression in E. coli; label from the status in PepcDB or PDB records
parameter measured: soluble on expression in E. coli

Note down soluble on expression in E. coli recorded for `MGSDKIHHHHHHMEQKLSESEQYLWHFIETHILEIPDYSIVKLSERANVSTATIVRTMKKKGYEGFTSFKHHLKDKENQNINFSALEKVDRGIRTAILKNEEEVTRTINMIEIGNIEDAIQKIKASRRIIIFARGFSELIAQEMMVKFQLAGKYCELHTDPEIIKNISKKLSKKDVALFVSLNGETQELVVAGKNCYDSEIGTILLTASKHSSLMKYIEIPFVGFKSEGSFFPDYEVRSRLPLSILARILLDAYALRTTT` not soluble

Note soluble on expression in E. coli for the sequence shown: `MGSDKIHHHHHHMNITIATLGELLVEFLAKKENQGFSSPGEFWGPYPSGAPAIFADQVAKLGFRSLLFSCVGNDAFGVMNITRLSRDGVNVQGISVLPNATTGSAFVSYRSQAQRDFIFNMPDSACGLLSADHLDETLLRQYRHFHIMGSSLFSFRLIDAVRKAISIVKENGGTISFDPNIRKEMLKIREMSQAFEYILDYTDFFLPSDGELDYFGLSKSRDEEKIVARLHKRGIAHVIIKRGARGASYYSKDEQHHVAGYPVKVVDPTGAGDCFGATFVSLFLAGYSVPDALAHANAAGSLAISARGPMEGTSTLAQIKELMRQQN` not soluble

====

# test name: soluble on expression in E. coli; label from the status in PepcDB or PDB records
parameter measured: soluble on expression in E. coli

State its soluble on expression in E. coli for this sequence: `MGSDKIHHHHHHLRTNTVKVALVGCGRIAGHHARSIVATDGVQLAAVCDLAEDKALAYSNEFGVPSYTDYRRMLAEHPEISVVAVITPSGMHSEHGLEMMERFGKHIILEKPTMMRPEQLVHAWGVADRLNLSIFPVFQNRHNKAVTRVRQALAAGELGEIRIMSVRVRWCRPQRYYDLAPWRGTFSHDGGALTNQGIHHVDLLRHLGGEVDQVSATMRTLGADIEVEDTVVATMRYRSQAVGVLEVTTAARPDDFEASISIVGEKGLAQIGGIAVNELQVFTPDPAACAANSEDFKSFEGNGAVYGFGHSQMYRDIAAHFHQGKAYPVSREDCLGTLKLLHAFYRSDEAAGGWVDVDSPEQSTRLGRPDDAISNLYRTPLHG` not soluble

Given the sequence `VVGHIVNDLQRRKVGDQEVVKFRVASNSRRRTSDGGWEPGNSLFITVNCWGRLVTGVGAALGKGAPVIVVGHVYTSEYEDRDGIRRSSLEMRATSVGPDLSRVIVRIEKPAYTGPSAGDLPAATGTGAAGAADAPASAADSVSDVVVDDAITGHNPLPISA` , write its reported soluble on expression in E. coli. not soluble

====

# test name: soluble on expression in E. coli; label from the status in PepcDB or PDB records
parameter measured: soluble on expression in E. coli

Solved entries (count: 6):
Retrieve soluble on expression in E. coli measured for `SGQKASQQVAPKDSQEVLAMCEVVSAAISHAAQKLKEYLGFEYPLSRLCLAASSLTEVFLVHFVTFCQERGADEWLTTTKMTKHQAWLFGADWIWTFWGPDKEIRLQVAVQTLRMASLPLTDPKSCESRGEESWKKGRFDKLQEFCNLVGEDCLGLFIIFGVPGEPKAIRGVVLESVRNGMMESQLPGRKAVEQFVLETKDCVSIKELLGNCLSKRDGLSDMGRVYIRIL` and print it. soluble

Report soluble on expression in E. coli, nothing else, for this sequence: `MKKVYIKTFGCQMNEYDSDKMADVLGSAEGMVKTDNPEEADVILFNTCSVREKAQEKVFSDLGRIRPLKEANPDLIIGVGGCVASQEGDAIVKRAPFVDVVFGPQTLHRLPDLIESRKQSGRSQVDISFPEIEKLEHHHHHH` not soluble

State its soluble on expression in E. coli for this sequence: `MKKETKPRVVVIGGGTGLPVILKGLKKKDIHLTAIVTVADDGGSSGKIREQMDVLPPGDIRNVMLALSNVDPRVVDLFQYRFAVDGDLSGHVIGNLILTALSQLNDSYVDAINVLATVLKIRGKVIPATDQPLILNAEMEDGSIVHGESLIPLQGKHINRVYIEPENVKPYPTAVEAVKEADLIVIGPGSLYTSILPNLLLTELADEITASKAPKVYITNILTQIGETDFFSDADHIKVIHEHVGKSFIDKTLINTTTVPKELLFPEDVAQVEHNAKGMEELGVEAIYQDFLSTEDGLVRHAAEKVADALLAMLPNQTNEKELEHHHHHH` soluble

Respond only with soluble on expression in E. coli recorded for `MKLKSLDFPTGYFYFDNAAINSDKVEVIAVGYRNTDKTIKIFIEDVIHFRVVDESYFIDTFMDLISEDADRALLHENGGQSFFELLDECYAEWILKESYFPLNREFFKYYIFMFEQTFIEIIGSSATYSIIEG` not soluble

Tell me soluble on expression in E. coli reported for `MTPIPFFNHMLITLLTYMNSTAIVSATDKLPYDDHHIVEDVAITLGLAIKTALGDKRGIKRFSHQIIPMDDALVLVSLDISNRGMAFVNLNLKRSEIGGLATENVPHFFQSFAYNSGITLHISQLSGYNTHHIIEASFKALGLALY` soluble

Give reported soluble on expression in E. coli value for `VSVGTHPTFENSPSGTVLTSPPDGSAVDRATDAARRVVDALLRTDRGNANLERVAEELNSIAGHLEEHAPAVAERLIDMWNGEGVTRHDPVTGPENALAPPVVLEGLSDGSVRGTVTLTIPYQGPPGHVHGGVSALLLDHVLGVANAWGGKAGMTAQLSTRYHRPTPLFEPLTLTGKLMSVDGRKITTAGDIRTADGQVCVSVEGLFVDKTVPRPR` soluble

Further cases:
Fill in reported soluble on expression in E. coli for this entry: `MSTTTAITSTLQRVTKAPEGRRMLRVEARNSQTPIESKPRWIRTAVKTGPEYQDMKKKVSGASLHTVCQEAGCPNIHECWESREATFLIGGANCSRRCDFCQINSAKPEPLDRDEPRRVAESVREMQLNYSTITGVTRDDLEDEGAWLYAEVVRKIHELNPHTGVENLTPDFSGKPDLLQEVFEARPEVFAHNLETVPRIFKRIRPAFRYERSLDVIRQARDFGLVTKSNLILGMGETVDEIRDALVDLHSAGCDIITITQYLRPGPMYHPIDRWVKPEEFIDHADFARELGFGAVMSGPLVRSSYRAGKLYAEALAARGESLPENLAHLATTADGSTAQEANTLLEKYGPSQDTPVVSSKA` not soluble

Retrieve soluble on expression in E. coli measured for `MDAAVIVPAYNEAESLARCLAPFESQPVELVVVVGGDDGTEQVARDTPFVDTVVRCDEGGAGIARNRGAAAATAPILLFTDADTVVPEDWVRLHLRHYADDEVIGVGGPARPLEDSLKHRVLFKLLSDYWYRVSWPLGFVQQPGFNCSFRADAFKAAGGFNEDIPFMEDTELSLRMKDYGRIVYDADSCVATSARREADEGYVSLFAKYVRGYANHYILRREFDADYFLEHHHHHH` and print it. not soluble

Indicate its recorded soluble on expression in E. coli; the sequence in question is `MSLKTSKTSTVVLIVPTTWSPFFAELVYRMQVELDRIGFKMILANSHADPDEEEEILRMASLNQVTGVITMSYSNIYNFINIGKKLNLVSIERFISEDVPLITSDNYGGGQLAAEKLITFGSKRFLLLRRKTNHYNATDKRTEGFLHIMKENNLPVDIFEASLKENYIEEFIHYLKTHFSGDVLTFDGIFGVTDEYAVIAKQVLFELNPSYLNKVNIIGFDGSKSQEKGSYQIASIRQPVEAMVKAAVKVLKKLIDGEEVPSHYSKVFDVSFVEPERLVEGHHHHHH` soluble

====

# test name: soluble on expression in E. coli; label from the status in PepcDB or PDB records
parameter measured: soluble on expression in E. coli

Provide measured soluble on expression in E. coli value, entry: `MSLNLQSKKRAWIVGKEHYDLGNDLFSRMLDPYMQYSCAYWKDADTLEAAQQAKLKLICEKLQLQPGMRVLDIGCGWGGLSQYMATHYGVSVVGVTISAEQQKMAQTRCEGLDVSILLEDYRDLNDQFDRIVSVGMFEHVGPKNYNTYFEVVDRNLKPDGLFLLHTIGSKKTDHNVDPWINKYIFPNGCLPSVRQIAEASESHFVMEDWHNFGADYDTTLMAWHERFINAWPEIAGNYNERFKRMFSYYLNACAGAFRARDIQLWQVVFTRGVENGLRVPREGHHHHHH` not soluble

Specify soluble on expression in E. coli for `MGSDKIHHHHHHALEENKEAKSLLEGIWLDDNTETALLRVKGDTLFYADAATAPVAFKIIGDSLITYGARTNGYKIEKQGEHIFWFHSAVGDVIRLHKSDTENDSLAFIHTREIPVYNEVIKKDSVVTYDNVRYRGYVYINPSKIKVMRPGVSEEGLGVDNVYYDNIIHICVYEGRKSLYAKDITKQMFKGVVPDDFLQWAILSDMDFMGVDSKGYHYQATVCIPDGASCYMVNITAGKDGGLAFELVR` and stop. not soluble
